Molecular target: UniProt P19357
Sequence (P19357 whole entry): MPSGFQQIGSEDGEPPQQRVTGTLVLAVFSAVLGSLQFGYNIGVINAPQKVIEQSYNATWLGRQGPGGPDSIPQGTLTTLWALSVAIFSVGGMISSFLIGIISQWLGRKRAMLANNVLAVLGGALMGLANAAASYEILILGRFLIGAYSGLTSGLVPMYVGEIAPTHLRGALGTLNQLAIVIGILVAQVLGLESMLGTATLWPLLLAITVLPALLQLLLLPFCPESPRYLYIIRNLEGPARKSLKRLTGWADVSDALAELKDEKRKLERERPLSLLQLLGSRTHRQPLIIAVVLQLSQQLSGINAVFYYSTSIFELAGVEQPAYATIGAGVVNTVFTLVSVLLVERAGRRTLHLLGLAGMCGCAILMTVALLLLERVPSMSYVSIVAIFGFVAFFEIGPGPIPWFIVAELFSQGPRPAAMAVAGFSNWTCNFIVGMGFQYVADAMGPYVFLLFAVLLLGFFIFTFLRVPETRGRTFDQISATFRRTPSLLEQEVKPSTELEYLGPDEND
Experiment: Antagonist activity at GLUT4 in rat adipocytes assessed as reduction in insulin-stimulated [3H]2-deoxyglucose uptake preincubated for 1 min followed by [3H]2-deoxyglucose addition measured after 1 min by liquid scintillation counting analysis
Where a SMILES comes first, the peptide text is derived from it. The star is where a group is joined. Cbz = O=C(OCc1ccccc1)*
RESULT_TYPE: pKi
As a rule, pKi stands for the negative log10 of the concentration, concentration in M.

Prompt line: Return reported pKi. Input compound: CCOC(=O)[C@H](Cc1ccccc1)NC(=O)[C@H](Cc1ccccc1)NC(=O)[C@H](Cc1cnc[nH]1)NC(=O)OCc1ccccc1 (Cbz-His-Phe-Phe-OEt)
Response line: 4.59

====

system: KMS-11; assay: Antiproliferative activity against human KMS11 cells over-expressing GFP after 72 hrs by CellTiter-Glo assay; assay type: functional, cell-based; settings: KMS-11, 72 h
RESULT_TYPE: pIC50
To interpret pIC50, take it as minus log10 of a concentration measured in moles per litre.

Take a look at these entries with their results.
{"COMPOUND_STRUCTURE_STRING": "COc1ccc(C(=O)N(Cc2ccncc2)Cc2cccc(OCc3cccc(OC)c3)c2)cc1", "pIC50": 4.77}
{"COMPOUND_STRUCTURE_STRING": "COc1ccc(C(=O)N(Cc2ccncc2)Cc2cccc(OCC(=O)c3ccc(Cl)cc3)c2)cc1", "pIC50": 4.73}
{"COMPOUND_STRUCTURE_STRING": "COc1ccc(C(=O)N(Cc2ccncc2)Cc2cccc(OCCc3ccc(Br)cc3)c2)cc1", "pIC50": 5.08}

Prompt line: Determine its reported pIC50: "COc1ccc(C(=O)N(Cc2ccncc2)Cc2cccc(OCC(=O)c3cccc(Br)c3)c2)cc1"
Response line: 4.73

Prompt line: Answer with the recorded pIC50 for the molecule listed here: "COc1ccc(C(=O)N(Cc2ccncc2)Cc2cccc(OCC3CCOCC3)c2)cc1"
Response line: 4.75

Prompt line: Specify pIC50 for "COc1ccc(CC(=O)N(Cc2ccncc2)Cc2cccc(OCCc3ccc(F)cc3)c2)cc1" and stop.
Response line: 4.87

Prompt line: Provide measured pIC50 value, entry: "COc1ccc(C(=O)N(Cc2ccncc2)Cc2cccc(OCC3CCN(C(=O)OC(C)(C)C)CC3)c2)cc1"
Response line: 5.29

Prompt line: // Input: "COc1ccc(C(=O)N(Cc2ccncc2)Cc2cccc(OCc3cccc([N+](=O)[O-])c3)c2)cc1" . Output its pIC50 only.
Response line: 4.71

Prompt line: Using the record for "COc1ccc(C(=O)N(Cc2ccncc2)Cc2cccc(OCC3CCCCC3)c2)cc1" , state its measured pIC50.
Response line: 4.71

Prompt line: Please supply the value of reported pIC50 for the item "COc1ccc(C(=O)N(Cc2ccncc2)Cc2cccc(OCCc3cccc(C(F)(F)F)c3)c2)cc1"
Response line: 5.05

Prompt line: Using the record for "O=C(c1ccc(Cl)cc1)N(Cc1ccncc1)Cc1cccc(OCCc2ccc(F)cc2)c1" , state its measured pIC50.
Response line: 4.88
